Tested on: Soybean, Williams, Glycine max
Experiment: Preemergence herbicidal evaluation, GLXMAW
Format: in vivo, (L.) Merr. cv Williams
Details: 0.2500 kg/ha
Listed next: entries and their corresponding herbicide rating (0-9).
PROPERTY LABEL: herbicide rating (0-9)

> print(dat)
                                   compound          property.label  measured.value
1  COc1ccc(C)cc1-c1nsc2ccc(-n3c(=O)cc(C(F)(F)F)n(C)c3=O)cc12  herbicide rating (0-9)             7.5
2  COC(=O)COc1c(C)cc(C)cc1-c1nsc2ccc(-n3c(=O)cc(C(F)(F)F)n(C)c3=O)cc12  herbicide rating (0-9)             6.0
3  COC(=O)C(C)Oc1ccc(C(C)C)cc1-c1nsc2ccc(-n3c(=O)cc(C(F)(F)F)n(C)c3=O)cc12 (stereo not drawn)  herbicide rating (0-9)             6.0

* * *

// reported herbicide rating (0-9) for each item listed
System: Soybean, Williams, Glycine max
Assay: Postemergence herbicidal evaluation, GLXMAW
Format: in vivo, (L.) Merr. cv Williams
Settings: 0.2500 kg/ha
Experimental: In the tests, seedling plants are grown in jiffy flats for about two weeks. The test compounds are dispersed in 50/50 acetone/water mixtures containing 0.5% TWEEN®20, a polyoxyethylene sorbitan monolaurate surfactant of Atlas Chemical Industries, in sufficient quantities to provide the equivalent of about 0.0157 kg to 0.500 kg per hectare of active compound when applied to the plants through a spray nozzle operating at 40 psi for a predetermined time. […]
PROPERTY LABEL: herbicide rating (0-9)

> print(dat)
                                   compound          property.label  measured.value
1  Cc1nsc2ccc(-n3c(=O)cc(C(F)(F)F)n(C)c3=O)cc12  herbicide rating (0-9)             7.0
2  COc1cc(C)ccc1-c1nsc2ccc(-n3c(=O)cc(C(F)(F)F)n(C)c3=O)cc12  herbicide rating (0-9)             9.0
3  COC(=O)C(C)Oc1cc(C)ccc1-c1nsc2ccc(-n3c(=O)cc(C(F)(F)F)n(C)c3=O)cc12 (centres unmarked)  herbicide rating (0-9)             9.0
4  Cc1cc(O)c(-c2nsc3ccc(-n4c(=O)cc(C(F)(F)F)n(C)c4=O)cc23)cc1C  herbicide rating (0-9)             6.0
5  COc1ccc(C)cc1-c1nsc2ccc(-n3c(=O)cc(C(F)(F)F)n(C)c3=O)cc12  herbicide rating (0-9)             7.0
6  COC(=O)COc1cc(C)c(C)cc1-c1nsc2ccc(-n3c(=O)cc(C(F)(F)F)n(C)c3=O)cc12  herbicide rating (0-9)             9.0
7  COC(=O)COc1cc(C)ccc1-c1nsc2ccc(-n3c(=O)cc(C(F)(F)F)n(C)c3=O)cc12  herbicide rating (0-9)             9.0
8  COC(=O)C(C)Oc1cc(C)c(C)cc1-c1nsc2ccc(-n3c(=O)cc(C(F)(F)F)n(C)c3=O)cc12 (centres unmarked)  herbicide rating (0-9)             8.5

* * *

Tested on: ECHCG
Test: Preemergence herbicidal evaluation
Assay type: in vivo
Set-up: scale not given here
Conditions: 0.5000 kg/ha
Some compounds, each annotated with its measured herbicidal effect rating.
PROPERTY LABEL: herbicidal effect rating

> print(dat)
                         chemical.structure  measured.value
1  O=C1C2=C(CCCC2)C(=O)N1c1ccc2snc(-c3ccccc3)c2c1             0.0
2       O=C1C2=C(CCCC2)C(=O)N1c1ccc2sncc2c1             6.0
3  Cc1nsc2ccc(-n3c(=O)cc(C(F)(F)F)n(C)c3=O)cc12             9.0
4    Cc1nsc2ccc(N3C(=O)C4=C(CCCC4)C3=O)cc12             5.0
5  Cn1c(C(F)(F)F)cc(=O)n(-c2ccc3snc(-c4ccccc4)c3c2)c1=O             9.0

* * *

System: Rice, Tebonnet, Oryza sativa
Test: Postemergence herbicidal evaluation, ORYSAT
Assay type: in vivo, (L.) Tebonnet
Conditions: 0.2500 kg/ha
Quick reference: herbicide rating (0-9) of the listed items.
PROPERTY LABEL: herbicide rating (0-9)

> print(dat)
                                    compound          property.label  measured.value
 1  COC(=O)COc1cc(C)ccc1-c1nsc2ccc(-n3c(=O)cc(C(F)(F)F)n(C)c3=O)cc12  herbicide rating (0-9)             8.5
 2  COC(=O)C(C)Oc1cc(C)c(C)cc1-c1nsc2ccc(-n3c(=O)cc(C(F)(F)F)n(C)c3=O)cc12 (stereo not drawn)  herbicide rating (0-9)             8.0
 3  CCc1ccc(-c2nsc3ccc(-n4c(=O)cc(C(F)(F)F)n(C)c4=O)cc23)cc1  herbicide rating (0-9)             3.0
 4  COC(=O)COc1ccc(C)cc1-c1nsc2ccc(-n3c(=O)cc(C(F)(F)F)n(C)c3=O)cc12  herbicide rating (0-9)             9.0
 5  Cc1nsc2ccc(-n3c(=O)cc(C(F)(F)F)n(C)c3=O)cc12  herbicide rating (0-9)             5.0
 6  COC(=O)COc1cc(C)c(C)cc1-c1nsc2ccc(-n3c(=O)cc(C(F)(F)F)n(C)c3=O)cc12  herbicide rating (0-9)             9.0
 7  Cc1cc(O)c(-c2nsc3ccc(-n4c(=O)cc(C(F)(F)F)n(C)c4=O)cc23)cc1C  herbicide rating (0-9)             2.0
 8  COC(=O)C(C)Oc1cc(C)ccc1-c1nsc2ccc(-n3c(=O)cc(C(F)(F)F)n(C)c3=O)cc12 (stereo not drawn)  herbicide rating (0-9)             9.0
 9  COc1cc(C)ccc1-c1nsc2ccc(-n3c(=O)cc(C(F)(F)F)n(C)c3=O)cc12  herbicide rating (0-9)             6.5
10  COc1ccc(C)cc1-c1nsc2ccc(-n3c(=O)cc(C(F)(F)F)n(C)c3=O)cc12  herbicide rating (0-9)             5.0
11  COC(=O)C(C)Oc1ccc(C)cc1-c1nsc2ccc(-n3c(=O)cc(C(F)(F)F)n(C)c3=O)cc12 (stereo not drawn)  herbicide rating (0-9)             9.0
12  Cn1c(C(F)(F)F)cc(=O)n(-c2ccc3snc(-c4ccccc4)c3c2)c1=O  herbicide rating (0-9)             3.0

* * *

Tested on: Corn, Field, Zea mays
Assay: Postemergence herbicidal evaluation, ZEAMX
Format: in vivo, L.
Settings: 0.0630 kg/ha
PROPERTY LABEL: herbicide rating (0-9)

> print(dat)
                                   compound          target.system  measured.value
1  C=CCOC(=O)C(C)Oc1ccc(C)cc1-c1nsc2ccc(-n3c(=O)cc(C(F)(F)F)n(C)c3=O)cc12 (stereo not shown)  Corn, Field, Zea mays             7.5
2  CC#CC(C)OC(=O)COc1ccc(C)cc1-c1nsc2ccc(-n3c(=O)cc(C(F)(F)F)n(C)c3=O)cc12 (stereo not shown)  Corn, Field, Zea mays             8.0
3  COC(=O)COc1ccc(C)cc1-c1nsc2ccc(-n3c(=O)cc(C(F)(F)F)n(C)c3=O)cc12  Corn, Field, Zea mays             8.0
4  Cc1ccc(OCC(=O)OC2CCCC2)c(-c2nsc3ccc(-n4c(=O)cc(C(F)(F)F)n(C)c4=O)cc23)c1  Corn, Field, Zea mays             7.5
5  Cc1ccc(OC(C)C(=O)OC(C)C)c(-c2nsc3ccc(-n4c(=O)cc(C(F)(F)F)n(C)c4=O)cc23)c1 (stereo not shown)  Corn, Field, Zea mays             5.5
6  Cc1ccc(OCC(=O)OC(C)C(C)(C)C)c(-c2nsc3ccc(-n4c(=O)cc(C(F)(F)F)n(C)c4=O)cc23)c1 (stereo not shown)  Corn, Field, Zea mays             6.5
7  Cc1ccc(OCC(=O)OCCCl)c(-c2nsc3ccc(-n4c(=O)cc(C(F)(F)F)n(C)c4=O)cc23)c1  Corn, Field, Zea mays             8.5

* * *

System: SAGPY Arrowhead (Pygmaea)
Assay: Postemergence weed control, flooded paddy (Table IV)
Type: in vivo, Sagittaria pygmaea
Design: scale not given here
Conditions: 0.1250 kg/ha
Recorded herbicidal effect rating by entry
PROPERTY LABEL: herbicidal effect rating

> print(dat)
                                   compound            property.label  measured.value
1  COc1cc2c(cc1-c1nsc3ccc(-n4c(=O)cc(C(F)(F)F)n(C)c4=O)cc13)CCC2 [Compound 380]  herbicidal effect rating             2.0
2  Cc1cc(O)c(-c2nsc3ccc(-n4c(=O)cc(C(F)(F)F)n(C)c4=O)cc23)cc1C [Compound 11]  herbicidal effect rating             0.0
3  CCOC(=O)COc1ccc(C)cc1-c1nsc2ccc(-n3c(=O)cc(C(F)(F)F)n(C)c3=O)cc12 [Compound 49]  herbicidal effect rating             0.0
4  COCc1nsc2cc(F)c(-n3c(=O)cc(C(F)(F)F)n(C)c3=O)cc12 [Compound 378]  herbicidal effect rating             9.0
